These measurements were taken from ChEMBL document CHEMBL3351346.

protocol_description: Stability in human plasma assessed as compound remaining at 50 uM at 37 degC after 60 mins by LC-MS/MS method
Format: ADME, cell-free
settings: read-out: Stability
measurement_kind: remaining at 1 h, 50 µM (%)

compound	remaining at 1 h, 50 µM [%]
CCCOC(=O)C1=C(S[C@@H]2CN[C@H](C(=O)Nc3cccc(C(=O)OCCC)c3)C2)[C@H](C)[C@@H]2[C@@H]([C@@H](C)O)C(=O)N12	7

I = Cc1oc(=O)oc1COC(=O)c1cccc(NC(=O)[C@@H]2C[C@H](SC3=C(C(=O)O)N4C(=O)[C@H]([C@@H](C)O)[C@H]4[C@H]3C)CN2)c1
II = CC(OC(=O)C1=C(S[C@@H]2CN[C@H](C(=O)Nc3cccc(C(=O)OC(C)OC(=O)C(C)(C)C)c3)C2)[C@H](C)[C@@H]2[C@@H]([C@@H](C)O)C(=O)N12)OC(=O)C(C)(C)C (stereo partly specified)
III = CC(C)C(=O)OCOC(=O)C1=C(S[C@@H]2CN[C@H](C(=O)Nc3cccc(C(=O)OCOC(=O)C(C)C)c3)C2)[C@H](C)[C@@H]2[C@@H]([C@@H](C)O)C(=O)N12
Challenge: In this exercise, place the 3 compounds in ascending sequence of their recorded remaining at 1 h, 50 µM. Give the labels in the order specified.
Response given: III, I, II
